Numbers sourced from patent US6203976A.

- System: MMTV (M10) promoter
- test protocol: High-throughput luciferase reporter assay, MMTV promoter (Screen III)
- Assay type: cell-based, mouse
- assay context: Screen III activators; M10 cells; 6 hours
metric name: FOLD INDUCTION RELATIVE TO SOLVENT CONTROL, MMTV
Number first, unit second: that is the form wanted.

{"compound": "Nc1ccc(SSc2ccc(N)cc2)cc1", "result value": "1.09 fold"}
{"compound": "CC(CCl)CBr (centres unmarked)", "result value": "0.89 fold"}
{"compound": "CCOC(=O)N1C(=O)c2ccccc2C1=O", "result value": "0.62 fold"}
{"compound": "O=C(N[C@H](CO)[C@H](O)c1ccc([N+](=O)[O-])cc1)C(Cl)Cl", "result value": "7.32 fold"}
{"compound": "O=C1CCCCC1Cl (centres unmarked)", "result value": "2.82 fold"}
{"compound": "Brc1cccc(-c2ccccc2)c1", "result value": "0.63 fold"}
{"compound": "Cc1ccc(N)c(S(=O)(=O)O)c1", "result value": "1.32 fold"}
{"compound": "CC(=O)c1c(C)cc(NC(C)(C)C)nc1NC(C)(C)C", "result value": "0.27 fold"}

Returns the measured FOLD INDUCTION RELATIVE TO SOLVENT CONTROL, MMTV for the input compound. Input: `O=C1OC2(c3cc(I)c(O)c(I)c3Oc3c2cc(I)c(O)c3I)c2c(Cl)c(Cl)c(Cl)c(Cl)c21`
1.21 fold

Query (compound): `c1ncncn1` ; field requested: FOLD INDUCTION RELATIVE TO SOLVENT CONTROL, MMTV
0.87 fold

Recorded FOLD INDUCTION RELATIVE TO SOLVENT CONTROL, MMTV for `Nc1ncnc2c1nc(Br)n2[C@@H]1O[C@H](CO)[C@@H](O)[C@H]1O` , please?
0.88 fold

----------
- Tested on: human growth hormone (532) promoter
- test protocol: High-throughput luciferase reporter assay, human Growth Hormone promoter (Screen III)
- Assay type: cell-based
- assay context: Screen III inhibitors; 532 cells; 6 hours
metric name: FOLD INHIBITION RELATIVE TO SOLVENT CONTROL, hGH (fold)
Number in fold, nothing else.

{"compound": "CC(=O)NCCCC[C@H](NC(C)=O)C(=O)O", "measurement target": "human growth hormone (532) promoter", "unit spec": "fold", "result value": 4.00}

Please find the next compound below.
Using the record for `C1CCNCC1` , report its FOLD INHIBITION RELATIVE TO SOLVENT CONTROL, hGH.
5.88

----------
- Test system: human growth hormone (532) promoter
- test protocol: High-throughput luciferase reporter assay, human Growth Hormone promoter (Screen III)
- Format: cell-based
- assay context: Screen III activators; 532 cells; 6 hours
Class membership depends on FOLD INDUCTION RELATIVE TO SOLVENT CONTROL, hGH alone; the intervals are bin A: < 0.6 fold; bin B: ≥ 0.6 fold and < 0.9 fold; bin C: ≥ 0.9 fold

Some solved cases for reference:
{"molecule": "Nc1c(Cl)c(Cl)nc(C(=O)O)c1Cl [compound 1561]", "assigned class": "bin C"}
{"molecule": "Brc1ccc2c3c(cccc13)CC2 [compound 1573]", "assigned class": "bin A"}
{"molecule": "ClCc1ccc(Cl)cc1 [compound 2129]", "assigned class": "bin B"}

Looking at Nc1nc(N)nc(N)n1 [compound 364] , which class would you pick?
bin C

State the class of the molecule shown: CCN(CC)CCCC(C)Nc1c2ccc(Cl)cc2nc2ccc(OC)cc12 (centres unmarked) [compound 423]
bin A

# bin label for O=C(Nc1cccc(C2=NCCN2)c1)Nc1cccc(C2=NCCN2)c1 [compound 1598]
bin C

Tag the class for CC1(C)[C@@H](C(=O)OCC(F)(F)C(F)(F)C(F)(F)C(F)(F)C(F)(F)C(F)F)CC[C@@]1(C)C(=O)OCC(F)(F)C(F)(F)C(F)(F)C(F)(F)C(F)(F)C(F)F [compound 1592]
bin B

Note: place this molecule into its band. Item: O=C(O)c1[nH]c(=O)[nH]c(=O)c1I [compound 633]
bin B

Please classify: O=c1c(O)c(-c2ccc(O)c(O)c2)oc2cc(O)ccc12 [compound 325]
bin C

Which category does the recorded FOLD INDUCTION RELATIVE TO SOLVENT CONTROL, hGH put CC(=O)OCC(=O)[C@@]1(O)CC[C@H]2[C@@H]3CCC4=CC(=O)C=C[C@]4(C)[C@H]3[C@@H](O)C[C@@]21C [compound 765] in?
bin C

State the class of the molecule shown: O=NN(O)c1ccccc1 [Chemical #1783, Cupferron]
bin A

// return the class label for OCC1CC2C3CC(CO)C(C3)C2C1 (centres unmarked) [compound 1678]
bin C

Class (by measured FOLD INDUCTION RELATIVE TO SOLVENT CONTROL, hGH) for CC(C=O)=CC=CC(C)=CC=CC=C(C)C=CC=C(C)C=CC1=C(C)CCCC1(C)C [compound 519]
bin B

Category of CC(=O)c1c(C)cc(NC(C)(C)C)nc1NC(C)(C)C [compound 40] , please.
bin B

The entry to classify is Nc1c2ccccc2nc2ccccc12 [compound 1904] ; which class holds it?
bin A

Sort O=C(O)c1ccc2c3c(ncnc13)-c1ccccc1C2=O [compound 378] into one of the categories.
bin A

Band of Nc1nc2nc[nH]c2c(=S)[nH]1 [compound 1521] ?
bin B

Would you mind sorting CN(C)c1ccc2cc3ccc(N(C)C)cc3nc2c1 [compound 80] into the appropriate category?
bin B

Hi, small favor: classify O=C(N[C@H](CO)[C@H](O)c1ccc([N+](=O)[O-])cc1)C(Cl)Cl [compound 2191] by its FOLD INDUCTION RELATIVE TO SOLVENT CONTROL, hGH when you get a moment.
bin A
